endpoint label: melting point (°C)

>  <record smiles>
O=C(/C=C/C=C/c1ccccc1)c1ccc[nH]1

>  <observed>
170

$$$$
>  <record smiles>
COc1ccccc1/C=C/C=C/C(=O)c1ccccn1

>  <observed>
195

$$$$
>  <record smiles>
O=C(/C=C/C=C/c1ccc([N+](=O)[O-])cc1)c1ccco1

>  <observed>
189

$$$$
>  <record smiles>
O=C(/C=C/C=C/c1ccccc1)c1cccs1

>  <observed>
102

$$$$
>  <record smiles>
O=C(/C=C/C=C/c1ccc([N+](=O)[O-])cc1)c1ccccn1

>  <observed>
205

$$$$
>  <record smiles>
COc1ccccc1/C=C/C=C/C(=O)c1ccc[nH]1

>  <observed>
177

$$$$
>  <record smiles>
O=C(/C=C/C=C/c1ccccc1)c1ccccn1

>  <observed>
182

$$$$

(P) O=C(/C=C/C=C/c1ccc([N+](=O)[O-])cc1)c1cccs1
(Q) O=C(/C=C/C=C/c1ccccc1)c1cccnc1
Enquiry: Could you kindly indicate whether P or Q has the higher melting point value? To answer, give the label that identifies your chosen option.
Return: P

Data origin: paper PMC10886690
